# Papp at 120 min annotations
# METHOD: Ex vivo rat jejunal permeability (MTS-Snapwell system, A–B)
# Type: in vitro ADME
# RUN_PARAMETERS: female, Wistar, rat, pH 7.4, marker in EBGT plant extract; HP-β-CD 70 mM
# Experimental: Study protocol for female Wistar rats (12–14 weeks old) was approved by the Ethics Committee on Animal Use (#066/15) at the Federal University of Goiás, Goiás, Brazil. […] Next, unidirectional drug transport was measured from the apical to basolateral side (A–B). […] Drug transport was measured by collecting samples (500 µL) from the receiver chamber (basolateral side) at 0, 20, 30, 40, 60, 90, and 120 min. […] Samples were analyzed by the HPLC-DAD validated method. […]
Answer in ×10⁻⁶ cm/s, number only, no unit symbol.

{"COMPOUND_STRING": "O=c1ccc2cc3ccoc3cc2o1", "Papp at 120 min / ×10⁻⁶ cm/s": 3.86}

Now consider a different compound.
QUERY: Item under review: COc1c2ccoc2cc2oc(=O)ccc12 . Reported Papp at 120 min?
RESULT: 3.04

---

# METHOD: Phase solubility studies with HP-β-CD in KRB buffer
# Assay type: physicochemical
# RUN_PARAMETERS: KRB buffer, 37 °C, pH 7.4, aqueous with cosolvent or surfactant or cyclodextrin, thermodynamic from solid, aqueous solubility with 70 mM HP-β-CD in plant extract, marker in EBGT; 70 mM HP-β-CD; KRB pH 7.4, 37 °C
# Method: Phase solubility studies were performed in KRB buffer solutions (pH 7.4), as described by Higuchi and Connors. […] Samples were centrifuged (4000 rpm, 5 min) and filtered (Nylon filter; 0.45 µm) prior to the psoralens content analysis by the HPLC-DAD validated method. The complexation efficiency (CE) was determined by using the slope of the linear phase solubility diagram as follows:CE = slope/(1 − slope)(2)
MEASUREMENT_TYPE: solubility at 7 d (µM)
Answer in µM, number only, no unit symbol.

QUERY: Item under review: COc1c2ccoc2cc2oc(=O)ccc12 [5-MOP, 5-methoxypsoralen] . Reported solubility at 7 d?
RESULT: 720
